test system: LOC_OS05G28520-cb001; experiment: thermal shift delta Tm vs DMSO control; higher = stronger stabilization (binding); conditions: 12.5 µM; protein concentration 2 µM;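 further: purified Escherichia coli-expressed rice kinase domain construct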
# thresholds on thermal shift delta Tm define classes: low: < 0.3 °C; intermediate: ≥ 0.3 °C and < 0.7 °C; high: ≥ 0.7 °C

In [3]: df
Out[3]:
                                    compound         label
 0  CCOC(=O)c1cnc2ccc(-c3cncc(NS(=O)(=O)c4ccccc4)c3)cn12  intermediate
 1  O=c1cc(-c2cccc3c2Sc2ccccc2S3)oc(N2CCOCC2)c1          high
 2        Oc1ccc(Nc2nc(-c3ccc(Cl)cc3)cs2)cc1  intermediate
 3  Cc1cc(C)c(/C=C2\C(=O)Nc3ccccc32)[nH]1 [Semaxanib (SU5416)]  intermediate
 4  CO[C@@H](C(=O)N1Cc2[nH]nc(NC(=O)c3ccc(N4CCN(C)CC4)cc3)c2C1)c1ccccc1  intermediate
 5  CC(C)(C)c1cnc(CSc2cnc(NC(=O)C3CCNCC3)s2)o1  intermediate
 6  Cc1cccc(Nc2nc(NC3CCCCC3N)ncc2C(N)=O)c1 (configuration not stated)  intermediate
 7  CCc1cnn2c(NCc3ccc[n+]([O-])c3)cc(N3CCCC[C@H]3CCO)nc12           low
 8  Cc1cc(C(C)Nc2ccccc2)c2nc(N3CCOCC3)cc(=O)n2c1 (configuration not stated)           low
 9  Cc1nc(Nc2n[nH]c3c2CN(C(=O)N[C@H](CN(C)C)c2ccccc2)C3(C)C)c2sccc2n1          high
10  N#Cc1ccc(-c2c(-c3ncn[nH]3)sc(N3CCOCC3)c2C#N)c(F)c1  intermediate
11  C=CC(=O)N1CCC[C@@H](n2nc(-c3ccc(Oc4ccccc4)cc3)c3c(N)ncnc32)C1           low
